- tgt: T1, soluble human FcRn (shFcRn) (human, UniProt P55899 24-297; P61769 21-119, biotinylated with Sulfo-NHS-LC-Biotin in the ELISA; amine-coupled to a CM5 chip in SPR)
- T1 construct: it is added here as the usual partner chain of FcRn; also called biotinylated shFcRn
- protocolNotes: SPR, pH 7.4
Examples of binders with documented Kd follow.
Field note: include the unit after the figure.

Example results:
Record summary for RFXTGRFGXXYPC (Pen3; Sar9; NMeLeu10; disulfide; C-terminal amide) [Peptide No. 256] : reported Kd = 500 nM

// field: Kd; key: RFXTGKFGXXYPC (Pen3; Sar9; NMeLeu10; disulfide; C-terminal amide) [Peptide No. 255] ; value = 1100 nM

Next, consider the following binder.
Sample RFXTGFFGXXYPC (Pen3; Sar9; NMeLeu10; disulfide; C-terminal amide) [Peptide No. 265] ; Kd observed: 4200 nM
